System: HeLa
Protocol Description: Antiproliferative activity against human HeLa cells assessed as cell growth inhibition incubated for 72 hrs by Calcein AM staining based fluorescence assay
Type: functional
Recorded Endpoint: pIC50
# reply with the number alone; pIC50 is -log10 of concentration in mol/L

## Input Provide the documented pIC50 with HeLa as the system for OC[C@H]1O[C@@H](n2cnc3c(NCc4ccco4)ncnc32)[C@H](O)[C@@H]1O [KINETIN RIBOSIDE]
## Output 5.37

###

Protocol Description: Antiproliferative activity against human HS27 cells assessed as cell growth inhibition incubated for 72 hrs by Beckman Coulter counting method
Format: toxicity, cell-based
Recorded Endpoint: IC50 at 72 h (nM)
Lab book: enter the figure in nM, no units written.

## Input Name the recorded IC50 at 72 h for OC[C@H]1O[C@@H](n2cnc3c(NCc4ccco4)ncnc32)[C@H](O)[C@@H]1O [KINETIN RIBOSIDE] .
## Output 180

###

Protocol Description: Antiproliferative activity against human HEK cells assessed as cell growth inhibition incubated for 72 hrs by Beckman Coulter counting method
Format: toxicity, cell-based
Recorded Endpoint: IC50 at 72 h (µM)
Lab book: enter the figure in µM, no units written.

## Input Name the recorded IC50 at 72 h for OC[C@H]1O[C@@H](n2cnc3c(NCc4ccco4)ncnc32)[C@H](O)[C@@H]1O [KINETIN RIBOSIDE] .
## Output 0.11

###

System: HL-60
Protocol Description: Cytotoxicity against human HL-60 cells assessed as inhibition of cell growth incubated for 5 days
Format: functional, cell-based
Experimental Context: HL-60, 120 h
Recorded Endpoint: IC50
Record the result as number plus unit.

## Input Provide the documented IC50 with HL-60 as the system for OC[C@H]1O[C@@H](n2cnc3c(NCc4ccco4)ncnc32)[C@H](O)[C@@H]1O [KINETIN RIBOSIDE]
## Output 980 nM

###

Protocol Description: Cytotoxicity against human MRC5 cells assessed as reduction in cell viability incubated for 72 hrs by MTT assay
Assay type: toxicity, cell-based
The following compounds are shown together with reported IC50 at 72 h values.

Compound	Experimental Value
OC[C@H]1O[C@@H](n2cnc3c(NCc4cccs4)ncnc32)[C@H](O)[C@@H]1O	1.8 µM
OC[C@H]1O[C@@H](n2cnc3c(NCc4ccco4)ncnc32)[C@@H](O)[C@@H]1O	> 100 µM
OC[C@H]1O[C@@H](n2cnc3c(NCc4ccoc4)ncnc32)[C@H](O)[C@@H]1O	0.7 µM
OC[C@H]1O[C@@H](n2cnc3c(NCc4ccco4)ncnc32)C[C@@H]1O	> 100 µM
Nc1nc(NCc2ccco2)c2ncn([C@@H]3O[C@H](CO)[C@@H](O)[C@H]3O)c2n1	> 100 µM
OC[C@H]1O[C@@H](n2nnc3c(NCc4ccco4)ncnc32)[C@H](O)[C@@H]1O	4.6 µM
Nc1nc(NCc2ccco2)nc2c1ncn2[C@@H]1O[C@H](CO)[C@@H](O)[C@H]1O	> 100 µM

Proceeding to the next compound to report its IC50 at 72 h.
## Input Name the recorded IC50 at 72 h for OC[C@H]1O[C@@H](n2cnc3c(NCc4ccco4)ncnc32)[C@H](O)[C@@H]1O [KINETIN RIBOSIDE] .
## Output 1.7 µM

###

System: HL-60
Protocol Description: Antiproliferative activity against human HL-60 cells assessed as cell growth inhibition incubated for 72 hrs by Calcein AM staining based fluorescence assay
Type: functional
Experimental Context: HL-60, 72 h
Recorded Endpoint: IC50 (µM)
Lab book: enter the figure in µM, no units written.

## Input Name the recorded IC50 for OC[C@H]1O[C@@H](n2cnc3c(NCc4ccco4)ncnc32)[C@H](O)[C@@H]1O [KINETIN RIBOSIDE] .
## Output 0.8

Taken from ChEMBL document CHEMBL5625261.
